assay: Metabolic stability in mouse liver microsomes assessed as half life; type: ADME, Microsome
quantityKind: half-life (h)
Reply with just the number (in h).

Ask | # lookup: half-life of NNC(=O)c1nc(-c2ccccc2)cc(-c2ccc(C(F)(F)F)nc2)n1
Reply | 7.57

###

test: Metabolic stability in mouse liver microsomes assessed as intrinsic clearance per mg protein; format: ADME, Microsome; conditions: read-out: CLH
quantityKind: microsomal CLint (µL/min/mg)
Answer format: numeric, µL/min/mg implied, no suffix.

Ask | So what does the record say about microsomal CLint for NNC(=O)c1nc(-c2ccccc2)cc(-c2ccc(C(F)(F)F)nc2)n1 ?
Reply | 1.53

###

assay: Semi-thermodynamic solubility of compound at pH 7.4; format: physicochemical; settings: buffer, read-out: Therm_solubility
quantityKind: solubility thermodynamic (µM)
The reply should be a number in µM, with the unit left off.

Ask | # solubility thermodynamic lookup, item NNC(=O)c1nc(-c2ccccc2)cc(-c2ccc(C(F)(F)F)nc2)n1
Reply | 200

###

assay: Metabolic stability in mouse hepatocytes assessed as intrinsic clearance per 10^6 cells; assay type: ADME, cell-based, Hepatocyte; details: read-out: CLH
quantityKind: hepatocyte CLint (µL/min/1e6 cells)
Write it as a number; the unit µL/min/1e6 cells goes unstated.

Ask | Sample NNC(=O)c1nc(-c2ccccc2)cc(-c2ccc(C(F)(F)F)nc2)n1 — what was its hepatocyte CLint?
Reply | 13
